system: CDK11; construct: gene CDK19; conditions: concentration: 1 μM, replicates: in singlicate; n = 1;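 note: KINOMEscan kinase panel screen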

COMPOUND	TARGET_OF_ASSAY	%Inh
Cc1cccc2c(-c3ccncn3)c(-c3ccc(F)cc3)nn12 [GW515532]	CDK11	0%
Cc1c(Cn2c3ccccc3n3c(=O)cc(N4CCOCC4)nc23)cccc1C(F)(F)F [GSK2306394]	CDK11	0%
COc1ccc(Nc2nccc(N3CCC(NC(=O)c4cc5ccccc5s4)C3)n2)cc1 (centres unmarked) [GSK1379738]	CDK11	41%
Cc1ccccc1Cn1ccn2c(=O)cc(N3CCOCC3)nc12 [GSK2269905]	CDK11	0%
COc1cccc(C2=C(Nc3cc(Cl)c(O)c(Cl)c3)C(=O)NC2=O)c1 [SB-390767]	CDK11	0%

###

test system: SRPK2; conditions: concentration: 1 μM, replicates: in singlicate; n = 1

SMILES_STRING	UNITS	%Inh
O=C(Nc1n[nH]c2cc(-c3ccsc3)ccc12)C1CC1	%	0
Cc1ccccc1-c1cc(-c2c[nH]nc2-c2ccccn2)ccn1	%	3
NS(=O)(=O)c1cccc(N/C=C2\C(=O)Nc3ccc(S(=O)(=O)Cc4c(Cl)cccc4Cl)cc32)c1	%	0
Cc1c(Cn2c(C)c(C)n3c(=O)cc(N4CCOCC4)nc23)cccc1C(F)(F)F	%	45
CNc1nc(-c2ccc3c(N)n[nH]c3c2)cc(N2C[C@@H](C(=O)NC3CCCCC3)OC[C@H]2C)n1	%	30
CNCc1ccc2nc(NC(=O)c3ccc(C(C)(C)C)cc3)cn2c1	%	5
Cc1ccc(NC(=O)Nc2ccccc2)cc1-c1ccc(C(=O)Nc2ccncc2)cc1	%	0
CS(=O)(=O)CCNCc1nc(-c2ccc3ncnc(Nc4ccc5c(cnn5Cc5ccccc5)c4)c3c2)cs1.Cl.Cl	%	33
COc1ccc(CSc2nnc(-c3ccc4ncsc4c3)o2)cc1C(F)(F)F	%	0
Cc1ccc(NC(=O)Nc2ccccc2F)cc1-c1ccc(C(=O)Nc2ccncc2)cc1	%	0
CCn1c(-c2ccccc2)nc2cnccc21	%	0
Nc1cccc(-c2ccc3c(N)n[nH]c3c2)n1	%	0
O=C1NC(=O)C(c2ccc(Cl)cc2)=C1Nc1cccc(Cl)c1	%	3

###

test system: PCTK1; construct: gene CDK16; conditions: concentration: 1 μM, replicates: in singlicate; n = 1
The following compounds are shown together with reported %Inh values.

COMPOUND	TARGET_OF_ASSAY	%Inh [%]
COc1ccc(Nc2nccc(NCCNC(=O)Nc3cc(C)ccc3C)n2)cc1 [GSK1379899]	PCTK1	2
CC(=O)c1c(C)c2cnc(Nc3ccc(N4CCNCC4)cn3)nc2n(C2CCCC2)c1=O	PCTK1	0
O=C1NC(=O)C(c2ccc(Cl)cc2)=C1Nc1ccc(O)cc1 [SB-340867]	PCTK1	0
CS(=O)(=O)CCNCc1nc(-c2ccc3ncnc(Nc4ccc(OCc5ccccc5)c(Cl)c4)c3c2)cs1.Cl [GW582764]	PCTK1	6
CS(=O)(=O)Cc1ccc(Nc2nccc(-c3c(-c4cccc(NC(=O)C5CCCCC5)c4)nn4ncccc34)n2)cc1 [GSK350559]	PCTK1	20
COC(=O)c1cccc(NC(=O)NC2CCN(c3ccnc(Nc4ccc(OC)cc4)n3)C2)c1 (stereo not drawn) [GSK1379746]	PCTK1	0
Cn1cnc2c(N)ncnc21 [SKF-97623]	PCTK1	0
Cl.Cl.Cl.N#Cc1ccc(CCNc2nccc(-c3cccc(CN4CCNCC4)c3)n2)cc1 [GSK2137462]	PCTK1	0
COc1cc2ncnc(Nc3cccc(Br)c3)c2cc1OC.Cl [GI230329]	PCTK1	0

###

system: EPHB2; conditions: concentration: 1 μM, replicates: in singlicate; n = 1
The following molecules are shown together with reported %Inh values.
OUTCOME_MEASURE: %Inh (%)

MOLECULE	OUTCOME_MEASURE	QUANTITATIVE_RESULT
CNc1nc(-c2ccc3c(N)n[nH]c3c2)cc(N2C[C@@H](C(=O)NC3CCCCC3)OC[C@H]2C)n1	%Inh	0
CCc1ccc(-c2ccc3c(c2)-c2n[nH]cc2S(=O)(=O)N3C)cc1	%Inh	10
Cc1ccc(NC(=O)Nc2ccc(Cl)cc2)cc1-c1ccc(C(=O)Nc2ccncc2)cc1	%Inh	11
COC(=O)c1cccc(NC(=O)NC2CCN(c3ccnc(Nc4ccc(OC)cc4)n3)C2)c1 (centres unmarked)	%Inh	8
Cc1c(Cn2c(C)c(C)n3c(=O)cc(N4CCOCC4)nc23)cccc1C(F)(F)F	%Inh	0
CC(=O)c1cccc(NC(=O)NC2CCN(c3ccnc(Nc4ccc(F)cc4)n3)C2)c1 (centres unmarked)	%Inh	11
O=c1cc(N2CCOCC2)nc2n(Cc3ccccc3F)ccn12	%Inh	0
COc1nccc(-c2c(-c3ccc(F)cc3)ncn2CCCN2CCOCC2)n1	%Inh	0

###

The following compounds are shown together with reported %Inh values.
test system: FLT4; settings: concentration: 1 μM, replicates: in singlicate; n = 1
OUTCOME_MEASURE: %Inh (%)

SMILES_STRING	TARGET_OF_ASSAY	OUTCOME_MEASURE	QUANTITATIVE_RESULT
c1ccc(-c2ccnc3[nH]ccc23)cc1	FLT4	%Inh	8
O=c1cc(N2CCOCC2)nc2n(Cc3ccccc3F)ccn12	FLT4	%Inh	2
COc1ccc2cc(-c3nc(-c4ccccc4C(C)C)[nH]c3-c3ccncc3)ccc2c1	FLT4	%Inh	22
Fc1ccc(-c2nc3n(c2-c2ccncc2)CCS3)cc1	FLT4	%Inh	12
Cc1ccc(NC(=O)Nc2ccc(Cl)c(C(F)(F)F)c2)cc1-c1ccc(C(=O)Nc2ccncc2)cc1	FLT4	%Inh	0

###

The following compounds are shown together with reported %Inh values.
system: ADCK3; construct: gene CABC1; settings: concentration: 1 μM, replicates: in singlicate; n = 1

COMPOUND	%Inh / %
COc1ccc2cc(-c3nc(-c4ccccc4C(C)C)[nH]c3-c3ccncc3)ccc2c1	5
Cc1ccc(NC(=O)c2ccc(Cl)cc2)cc1-c1ccc(C(=O)Nc2ccncc2)cc1	15
Cn1cncc1-c1cc2c(Nc3ccc(OCc4ccccc4)cc3)ncnc2cn1	7
COc1ccc(Nc2nccc(N3CCC(NC(=O)C(C)c4ccc(Cl)cc4)CC3)n2)cc1 (stereo not shown)	25

###

system: NEK9; conditions: concentration: 1 μM, replicates: in singlicate; n = 1
OUTCOME_MEASURE: %Inh (%)

MOLECULE	OUTCOME_MEASURE	QUANTITATIVE_RESULT
COc1cccc(CNC(=O)NC2CCN(c3ccnc(Nc4ccc(F)cc4)n3)C2)c1 (stereo not drawn)	%Inh	0
Cc1ccccc1-c1cc(-c2c[nH]nc2-c2ccccn2)ccn1	%Inh	0
Cc1ccc(-c2nc(Nc3ccncc3)c3ccccc3n2)s1	%Inh	15
Fc1ccc(-c2nc[nH]c2-c2ccncc2)cc1	%Inh	0
Cc1ccc(NC(=O)Nc2ccccc2F)cc1-c1ccc(C(=O)Nc2ccncc2)cc1	%Inh	14
CS(=O)(=O)CCNCc1nc(-c2ccc3ncnc(Nc4ccc(OCc5ccccc5)c(Cl)c4)c3c2)cs1.Cl	%Inh	0
COc1cccc(NC(=O)Nc2ccc(C)c(-c3ccc(C(=O)Nc4ccncc4)cc3)c2)c1	%Inh	12
CCn1c(-c2ccccc2)nc2cnccc21	%Inh	0
CC(C)c1cc(-c2ccc3c(N)n[nH]c3c2)nc(N)n1	%Inh	18
Cn1cncc1-c1cc2c(Nc3ccc(OCc4ccccc4)cc3)ncnc2cn1	%Inh	45
CS(=O)(=O)Cc1ccc(Nc2nccc(-c3c(-c4cccc(NC(=O)C5CCCCC5)c4)nn4ncccc34)n2)cc1	%Inh	0
FC(F)(F)c1ccccc1-c1cc(-c2c[nH]nc2-c2ccccn2)ccn1	%Inh	4
Cc1cnc(N)c(/C=C/c2cncc(C(=O)NCCc3ccc(Cl)cc3Cl)c2)c1.Cl	%Inh	0
CCn1c(-c2c(N)noc2C)nc2cnccc21	%Inh	0
Cc1c(Cn2c(C)c(C)n3c(=O)cc(N4CCOCC4)nc23)cccc1C(F)(F)F	%Inh	12
CNc1nc(-c2ccc3c(N)n[nH]c3c2)cc(N2C[C@@H](C(=O)Nc3ccccc3)CC[C@H]2C)n1	%Inh	4
CC(=O)c1c(C)c2cnc(Nc3ccc(N4CCNCC4)cn3)nc2n(C2CCCC2)c1=O	%Inh	0
NS(=O)(=O)c1cccc(N/C=C2\C(=O)Nc3ccc(S(=O)(=O)Cc4c(Cl)cccc4Cl)cc32)c1	%Inh	13

###

tested on: ULK2; settings: concentration: 1 μM, replicates: in singlicate; n = 1
Returns True if the recorded %Inh is greater than or equal to 4%, and False otherwise.

COMPOUND	TARGET_OF_ASSAY	CLASS_LABEL
COC(=O)C(Cc1ccccc1)NC(=O)NC1CCN(c2ccnc(Nc3ccc(F)cc3)n2)C1 (stereo not shown)	ULK2	False
COc1ccc(Nc2nccc(N3CCC(NC(=O)C(C)c4ccc(Cl)cc4)C3)n2)cc1 (stereo not shown)	ULK2	True
COc1cc2ncnc(Nc3cccc(Br)c3)c2cc1OC.Cl	ULK2	False
O=c1cc(N2CCOCC2)nc2n(Cc3cccc(Cl)c3Cl)c3ccccc3n12	ULK2	False
COc1cccc(C2=C(Nc3cc(Cl)c(O)c(Cl)c3)C(=O)NC2=O)c1	ULK2	False
Cc1cnc(N)c(/C=C/c2cncc(C(=O)NCCc3ccc(Cl)cc3Cl)c2)c1.Cl	ULK2	False
Cc1ccc(NC(=O)c2ccc(Cl)cc2)cc1-c1ccc(C(=O)Nc2ccncc2)cc1	ULK2	False
Nc1ncnc2occ(-c3ccc4c(c3)CCN4C(=O)Cc3cc(F)ccc3F)c12	ULK2	False
O=C1NC(=O)C(c2ccc(Cl)cc2)=C1Nc1ccc(O)cc1	ULK2	False
Fc1ccc(-c2nc3n(c2-c2ccncc2)CCS3)cc1	ULK2	False
Cc1ccc(-c2nc(Nc3ccncc3)c3ccccc3n2)s1	ULK2	True
CN1c2ccc(-c3ccc(C(N)=O)cc3)cc2-c2[nH]ncc2S1(=O)=O	ULK2	True
CCn1c(-c2c(N)noc2C)nc2cnccc21	ULK2	True
O=C(Nc1n[nH]c2nc(-c3cccs3)c(Br)cc12)C1CC1	ULK2	True
O=C(Nc1n[nH]c2nc(-c3cccs3)c(Br)cc12)C1CCCC1	ULK2	True
CNCc1ccc2nc(NC(=O)c3ccc(C(C)(C)C)cc3)cn2c1	ULK2	True
COc1nccc(-c2c(-c3ccc(F)cc3)ncn2CCCN2CCOCC2)n1	ULK2	True

Hello, the source for this data is paper PMC5540273, in case you need it.
